The following compounds are listed with their measured Population Pyknosed Nuclei (%) values.
# Test system: HEK-293T
# experiment-summary: Multiplex assay against HEK293T
# Format: toxicity, cell-based
# assay-setup: human, 12 h, 1 µM, compound concentration 1 uM, replicate 1
Kindly provide the numeric value in % only, without the unit symbol.

Completed entries (count: 2):
compound: Cc1cnc(-c2cc(N3CCN(C(=O)CCS(C)(=O)=O)CC3)ncc2Cl)c(C)c1
unit-symbol: %
Population Pyknosed Nuclei (%): 16
//
compound: CCc1cc2cc(NS(=O)(=O)c3ccc(C#N)cc3)ccc2n(CC)c1=O
unit-symbol: %
Population Pyknosed Nuclei (%): 12

Reported Population Pyknosed Nuclei (%) for N#Cc1cc(F)cc(-c2nc(-c3ccc(F)cn3)no2)c1 : what is it?
12

Which Population Pyknosed Nuclei (%) reading was recorded for the compound N#Cc1c(Oc2cccc(OS(=O)(=O)CCCC(F)(F)F)c2)cccc1C(F)(F)F ?
8

Quick check: Population Pyknosed Nuclei (%) of COc1cccc2c1c(NS(=O)(=O)c1ccc(Cl)s1)nn2Cc1cccc(CNC(=O)C(C)(C)O)c1 ?
10

# input compound: C[C@H](N)COC(=O)[C@@H](CCCCN)NC(=O)Cc1c(-c2ccc3ccccc3c2)[nH]c2c1ccc1ccccc12 ; wanted: its Population Pyknosed Nuclei (%)
10

Recorded Population Pyknosed Nuclei (%) for O=C(NCCN1CCC(n2c(=O)[nH]c3cc(Cl)ccc32)CC1)c1ccc(F)cc1 [HALOPEMIDE] , please?
13

Reported Population Pyknosed Nuclei (%) for CCCCC1=NC2(CCCC2)C(=O)N1Cc1ccc(-c2ccccc2-c2nnn[nH]2)cc1 : what is it?
10
